Where do these numbers come from? They come from paper doi:10.1101/2023.06.27.546672v1.

Biological target: apo-sMlaD (Escherichia coli)
Sequence (P64604 29-183 limits assumed): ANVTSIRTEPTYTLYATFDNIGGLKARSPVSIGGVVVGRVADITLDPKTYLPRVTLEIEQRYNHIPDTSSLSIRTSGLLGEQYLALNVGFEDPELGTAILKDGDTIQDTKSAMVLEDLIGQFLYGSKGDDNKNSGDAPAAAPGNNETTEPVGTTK
Reported metric: Kd (µM)
Provide only the numeric value, understood in µM.

Hey, apo-sMlaD (Escherichia coli) data for C[C@H](CCC(=O)O)[C@H]1CC[C@H]2[C@@H]3[C@H](O)C[C@@H]4C[C@H](O)CC[C@]4(C)[C@H]3CC[C@]12C [CDOC] : Kd came out at 61.6
